Read-out: Alpha-fetoprotein (AFP) gene, AFP (gene 174)
Experiment: LTEA_HepaRG_AFP: Life Technologies and Expression Analysis (LTEA) Assay for Alpha-fetoprotein (AFP) gene using HepaRG (AID 2283472)
Conditions: mRNA level, 48 h; actives raise or lower the signal
The source made the active and inactive calls. The calls were made as follows: active = hit-call score of the fitted dose curve at least 0.9, where 1 is the maximum; inactive = score below 0.9.
Would you mind answering with one of these outcomes? True for active, False for inactive

Please review the entries below; each comes with its answer.
INSERT INTO measurements (molecule, group_label) VALUES
  ('CNC(=O)Oc1cccc2c1OC(C)(C)O2', 'False'),
  ('CN(C)C(=O)Nc1cccc(C(F)(F)F)c1', 'False'),
  ('Nc1nc(N)nc(NC2CC2)n1', 'False'),
  ('CNC(=O)ON=C(SC)C(=O)N(C)C', 'False'),
  ('CON=C(C(=O)OC)c1ccccc1CON=C(C)c1cccc(C(F)(F)F)c1', 'False');

Recorded call for COP(=O)(OC)C(O)C(Cl)(Cl)Cl (stereo unspecified) ?
False

Test call, this molecule: CCc1cnc(C2=NC(C)(C(C)C)C(=O)N2)c(C(=O)O)c1 (stereo unspecified)
False

How was CCCSP(=O)(OCC)Oc1ccc(Br)cc1Cl (stereo unspecified) classified in this test?
False

----------
Read-out: Human Leukocyte Antigen - DR isotype (HLADR), HLA-DRA (gene 3122)
Assay: BSK_3C_HLADR: BioMAP Diversity Plus: 3C Assay for Human Leukocyte Antigen - DR isotype (HLADR) Biomarker Activity (AID 2283019);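 as to outcome: ELISA of cell-surface HLA-DR on HUVEC 24 h after dosing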
Conditions: primary human endothelial cells (HUVEC); actives raise or lower the signal
Active and inactive are the calls of the source. How the source made its calls: active means hit-call score of the fitted dose curve at least 0.9, where 1 is the maximum; inactive means score below 0.9.
Please state which outcome applies, choosing from active, inactive

INSERT INTO assay_data (compound, group_label) VALUES
  ('CC1(C(=O)Nc2ccc(O)c(Cl)c2Cl)CCCCC1', 'inactive'),
  ('CC(=NC#N)N(C)Cc1ccc(Cl)nc1', 'inactive'),
  ('COc1ccc(C(=CC(=O)N2CCOCC2)c2ccc(Cl)cc2)cc1OC', 'active');

Now for a further compound.
Assay outcome for CCOP(=O)(OCC)Oc1cc(C)nc(C(C)C)n1 : what was it?
active

----------
Read-out: solute carrier (SLC22A1), SLC22A1 (gene 6580)
Assay: LTEA_HepaRG_SLC22A1: Life Technologies and Expression Analysis (LTEA) Assay for solute carrier (SLC22A1) using HepaRG (AID 2283524)
Conditions: mRNA level, 48 h; actives raise or lower the signal
Calls of active or inactive are those of the source. The calls were made as follows: active = hit-call score of the fitted dose curve at least 0.9, where 1 is the maximum; inactive = score below 0.9.
Please answer using one outcome listed in Y = active, N = inactive

INSERT INTO results (compound, group_label) VALUES
  ('CCCOc1nn(C(=O)NS(=O)(=O)c2ccccc2C(=O)OC)c(=O)n1C', 'N');

GET /call?item= CCc1cccc(CC)c1N(COC)C(=O)CCl returns the recorded outcome of this test.
N

Hello, I am checking results. What call was entered for C=C(C)[C@H]1Cc2c(ccc3c2O[C@@H]2COc4cc(OC)c(OC)cc4[C@@H]2C3=O)O1 ?
Y

Can you look up the reported call for CCc1cnc(C2=NC(C)(C(C)C)C(=O)N2)c(C(=O)O)c1 (stereo not given) for me?
N

----------
Read-out: Urokinase-type plasminogen activator receptor (uPAR), PLAUR (gene 5329)
Assay: BSK_CASM3C_uPAR: BioMAP Diversity Plus: CASM3C Assay for Urokinase-type plasminogen activator receptor (uPAR) Biomarker Activity (AID 2283054);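 also: cell-surface uPAR protein level quantified by ELISA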
Details: primary human coronary artery smooth muscle cells; actives raise or lower the signal
Calls of active or inactive are those of the source. Rule for the calls: active = hit-call score of the fitted dose curve at least 0.9, where 1 is the maximum; inactive = score below 0.9.
Respond using exactly one of the listed classes: true = active, false = inactive

A selection of reference data follows.
INSERT INTO measurements (line_notation, group_label) VALUES
  ('CCNc1nc(Cl)nc(NC(C)(C)C#N)n1', 'true'),
  ('CCOP(=S)(OCC)Oc1ccc([N+](=O)[O-])cc1', 'false');

Consider now this further molecule.
Hello, I am checking results. What call was entered for CNc1cnn(-c2cccc(C(F)(F)F)c2)c(=O)c1Cl ?
false

----------
Read-out: Cytochrome P450 (CYP2B6), CYP2B6 (gene 1555)
Experiment: LTEA_HepaRG_CYP2B6: Life Technologies and Expression Analysis (LTEA) Assay for Cytochrome P450 (CYP2B6) using HepaRG (AID 2283481)
Settings: mRNA level, 48 h; actives raise or lower the signal
The source made the active and inactive calls. Rule for the calls: active = hit-call score of the fitted dose curve at least 0.9, where 1 is the maximum; inactive = score below 0.9.
Write down one outcome, taken from Y for active, N for inactive

Reference set, count: 10
INSERT INTO results (molecule, group_label) VALUES
  ('COc1cccc(C(=O)NN(C(=O)c2cc(C)cc(C)c2)C(C)(C)C)c1C', 'Y'),
  ('O=[N+]([O-])c1cc(C(F)(F)F)c(Cl)c([N+](=O)[O-])c1Nc1ncc(C(F)(F)F)cc1Cl', 'Y'),
  ('COc1ccc(C(=CC(=O)N2CCOCC2)c2ccc(Cl)cc2)cc1OC', 'Y'),
  ('CNC(=O)ON=C(C)SC', 'N'),
  ('C[N+]1(C)CCCCC1', 'N'),
  ('CCOP(=S)(Oc1cnc(C(C)(C)C)nc1)OC(C)C (stereo not drawn)', 'Y'),
  ('CC(C1CC1)C(O)(Cn1cncn1)c1ccc(Cl)cc1 (stereo not drawn)', 'Y'),
  ('Cc1cc(C2CC2)nc(Nc2ccccc2)n1', 'Y'),
  ('COP(=O)(OC)SCn1c(=O)oc2cc(Cl)cnc21', 'Y'),
  ('C[Si](Cn1cncn1)(c1ccc(F)cc1)c1ccc(F)cc1', 'Y');

Check the results log: what was the call for C#CCC1=C(C)C(OC(=O)C2C(C=C(C)C)C2(C)C)CC1=O (stereo not drawn) ?
Y

Hey, what did the test say about CCCOc1nn(C(=O)NS(=O)(=O)c2ccccc2C(=O)OC)c(=O)n1C ?
N

Please share the test call associated with CCc1cccc(C)c1N(C(=O)CCl)C(C)COC (stereo not drawn) .
Y

What outcome does the record of this test show for CCCCOC(=O)[C@@H](C)Oc1ccc(Oc2ccc(C#N)cc2F)cc1 ?
N

----------
Read-out: Interleukin-8 (IL8), CXCL8 (gene 3576)
Assay: BSK_SAg_IL8: BioMAP Diversity Plus: SAg Assay for Interleukin-8 (IL8) Biomarker Activity (AID 2283094)
Details: primary human HUVEC with PBMC; actives raise or lower the signal
Active and inactive are the calls of the source. The calls were made as follows: active = hit-call score of the fitted dose curve at least 0.9, where 1 is the maximum; inactive = score below 0.9.
Output constraint: value belongs to active, inactive

Record excerpt, results attached:
INSERT INTO results (molecule, group_label) VALUES
  ('CCC(CC)Nc1c([N+](=O)[O-])cc(C)c(C)c1[N+](=O)[O-]', 'active'),
  ('CC(C)[C@H](C(=O)O[C@H](C#N)c1cccc(Oc2ccccc2)c1)c1ccc(Cl)cc1', 'inactive'),
  ('CN(C)NC(=O)CCC(=O)O', 'inactive');

Please share the test call associated with CCOP(=S)(OCC)SCCSCC .
inactive

Kindly provide the recorded test outcome for the following molecule: CCOP(=O)(NC(C)C)Oc1ccc(SC)c(C)c1 (configuration not stated)
inactive

Record request — test call for CCOC(=O)CC(SP(=O)(OC)OC)C(=O)OCC (configuration not stated)
inactive

----------
Experiment: BSK_4H_Eotaxin3: BioMAP Diversity Plus: 4H Assay for Eotaxin 3 Biomarker Activity (AID 2283000)
Settings: primary human endothelial cells (HUVEC); actives raise or lower the signal
Active and inactive are the calls of the source. The calls were made as follows: active = hit-call score of the fitted dose curve at least 0.9, where 1 is the maximum; inactive = score below 0.9.
Choose one outcome from this list and give only that: Yes for active, No for inactive

What was the test verdict on CSC1=N[C@@](C)(c2ccccc2)C(=O)N1Nc1ccccc1 ?
Yes

----------
Assay: BSK_CASM3C_Proliferation: Cell Proliferation Assessment in the BioMAP Diversity Plus: CASM3C Assay (AID 2283047);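 also: sulforhodamine B total protein stain as relative cell number at 560 nm; sub-confluent cells exposed 48 h before staining; fitted both ways against DMSO so gain or loss of cell number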
Settings: primary human coronary artery smooth muscle cells
Active and inactive are the calls of the source. Rule for the calls: active = hit-call score of the fitted dose curve at least 0.9, where 1 is the maximum; inactive = score below 0.9.
// allowed return values: yes for active, no for inactive

Consider the following illustrative entries.
INSERT INTO assay_data (compound, group_label) VALUES
  ('O=C(O)c1cc(Oc2ccc(C(F)(F)F)cc2Cl)ccc1[N+](=O)[O-]', 'no'),
  ('CCOP(=S)(OCC)Oc1ccc([N+](=O)[O-])cc1', 'no'),
  ('CCC(CC)Nc1c([N+](=O)[O-])cc(C)c(C)c1[N+](=O)[O-]', 'yes'),
  ('CSc1nc(NC(C)C)nc(NC(C)C)n1', 'no');

// param item: CCOP(=S)(Oc1cnc(C(C)(C)C)nc1)OC(C)C (configuration not stated) ; yields the recorded call
yes

Please state the recorded outcome for this compound: COP(=O)(NC(C)=O)SC (configuration not stated)
no

Entry CCOP(=O)(NC(C)C)Oc1ccc(SC)c(C)c1 (configuration not stated) : call = ?
no

Which result was noted for this compound in the test: CCOP(=O)(SC(C)CC)N1CCSC1=O (configuration not stated)
no

So what was the verdict on CN(C)C(=O)Nc1cccc(C(F)(F)F)c1 in this test?
no

What did the test return for CC(C)=CC1C(C(=O)OCN2C(=O)C3=C(CCCC3)C2=O)C1(C)C (configuration not stated) ?
yes

Field: outcome | Entry: CCOP(=S)(OCC)SCCSCC
no

What is the recorded call for this compound in the test? CCc1cnc(C2=NC(C)(C(C)C)C(=O)N2)c(C(=O)O)c1 (configuration not stated)
no

I would be grateful if you could indicate the recorded call for C=C(C)[C@H]1Cc2c(ccc3c2O[C@@H]2COc4cc(OC)c(OC)cc4[C@@H]2C3=O)O1 .
yes

Recorded test outcome, item CC(COc1ccc(Oc2ccccc2)cc1)Oc1ccccn1 (configuration not stated)
yes

What was the test verdict on CN(C)NC(=O)CCC(=O)O ?
no

Dear colleague, could you share the recorded outcome for CCOP(=S)(OCC)OC(Cl)C(Cl)(Cl)Cl (configuration not stated) when you have a moment?
yes

Please state the recorded outcome for this compound: CCNc1nc(Cl)nc(NC(C)(C)C#N)n1
no

Could you check what this test reported for CNC(=O)ON=C(SC)C(=O)N(C)C ?
no

Test call for this compound, please: CC(C)N(C(=O)SCC(Cl)=C(Cl)Cl)C(C)C
yes
